The values you see were collected from patent US20230135894A1.

# EXPERIMENTAL TARGET: MK2 (Homo sapiens)
# Sequence (P49137 whole entry): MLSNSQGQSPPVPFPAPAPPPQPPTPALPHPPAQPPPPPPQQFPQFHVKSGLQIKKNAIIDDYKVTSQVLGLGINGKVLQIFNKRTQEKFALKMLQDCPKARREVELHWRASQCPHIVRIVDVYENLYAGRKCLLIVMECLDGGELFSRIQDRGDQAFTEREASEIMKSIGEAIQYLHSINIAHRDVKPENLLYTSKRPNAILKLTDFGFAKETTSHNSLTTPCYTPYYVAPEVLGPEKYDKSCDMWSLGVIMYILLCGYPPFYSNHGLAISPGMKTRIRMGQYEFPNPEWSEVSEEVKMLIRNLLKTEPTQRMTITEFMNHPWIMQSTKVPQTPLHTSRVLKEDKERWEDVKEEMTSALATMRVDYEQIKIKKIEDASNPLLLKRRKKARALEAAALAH
# PROTOCOL: MK2 degradation in human THP-1 monocytic cells (MSD, 24 h)
# Type: cell-based
# Set-up: endogenous in cells
# CONDITION: THP-1 cells, read-out: MK2 MSD THP-1 degradation 24 h GMean External Abs DC50
VALUE KIND: DC50

The following compounds have reported results that may help.
COMPOUND	OBSERVED
CC(C)Oc1cc(-c2ccc3c(ccc4sc5c(c43)NC[C@@H](C)NC5=O)n2)cc(N2CCN(CC3CCN(c4ccc5c(c4)n(C)c(=O)n5C4CCC(=O)NC4=O)CC3)CC2)c1 (stereo partly drawn)	< 1 nM
COc1ccc2c(c1N1CCN(CC3CCN(c4ccc(-c5ccc6c(ccc7sc8c(c76)NC[C@@H](C)NC8=O)n5)cn4)CC3)CC1)n(C)c(=O)n2C1CCC(=O)NC1=O (stereo partly drawn)	< 1 nM

C[C@@H]1CNc2c(sc3ccc4nc(-c5ccc(N6CCN(CCc7ccc8c(c7)n(C)c(=O)n8C7CCC(=O)NC7=O)CC6)cc5)ccc4c23)C(=O)N1 (stereo partly drawn) on MK2 (Homo sapiens) gives DC50 = < 1 nM
